Sourced from patent US20220251215A1

Some binders, each annotated with its measured ratio of MFI, pulsed to unpulsed.
target: HLA-A2 on T2 cells pulsed with MAGEH1: 90-98 peptide (human); assay: flow cytometry, 10 ug/ml, pulsed T2 cells
The answer is to be given in ratio; state only the numeric part.

mAb28042P (antibody, human IgG4 S228P, kappa, V domains shown) VH: QLQLQESDPGLVKPSETLSLTCTVSGDSIRNSNYYWGWIRQPPGKGLEWIGSIYFSGRTYFNPSLKSRVTIPVDMSKNQFSLMLNSVTATDTAVYYCARHGGITAAGGFFDYWGQGTLVTVSS VL: DIQMTQSPSSLSASVGDRVTITCQASQDISNYLNWYQQKPGKAPNVLIYDASNLETGVPSRFSGSGSGTDFTFTISSLQPEDFATYYCQQNDNLPLTFGGGTKVEIKR    0.4

I am curious: what ratio of MFI, pulsed to unpulsed value has been reported for mAb28105P (antibody, human IgG4 S228P, kappa, V domains shown) VH: EVQLVESGGGVVQPGGSLRLSCEASGFIFDDYAMHWVRQAPGKGLEWVSLISGDGDIIYYADSVKGRFTISRDNSKNSLYLQMNSLIIEDTALYYCAKDWVFGVVMTHYWYFGLDVWGQGTTVTVSS VL: DIQMTQSPSSLSASEGDRVTITCRASQSISTYLNWYQQKPGKAPKLLIYGASSLQSGVPSRFSGSGSGTDFTLTISSLQPEDFATYYCQQSYSTPPITFGQGTKVEIKR ?
0.5
